Field: KI (inactivation). Provide a value for each of the compounds that follow.
Tested on: CYP3A
Assay: Pre-incubation study (time-dependent / mechanism-based inhibition) of MDZ 1'-OH activity in human liver microsomes
Assay type: in vitro ADME
Settings: human, human liver microsomes, probe midazolam (MDZ) 10 µM, 1'-hydroxylation; HLM + NADPH, pre-incubation 5-30 min, 10-fold dilution; read-out: KI (inhibitor concentration causing half-maximal inactivation)
One number for each entry, in µM.

Query COc1cc(OC)c2c(=O)cc(-c3ccccc3)oc2c1 [5,7-DMF, 5,7-dimethoxyflavone] yields KI (inactivation) of 10.7

Next compound, KI (inactivation) to be filled in.
Record COc1cc(OC)c2c(=O)c(OC)c(-c3ccc(OC)c(OC)c3)oc2c1 [3,5,7,3’,4’-PMF, 3,5,7,3’,4’-pentamethoxyflavone] . Reported KI (inactivation): 25.5
